From: paper PMC5590070

Test: Cytotoxic assay, resazurin reduction test, 48 h
Format: cell-based, human
Conditions: human, DLD-1 colon adenocarcinoma cells; DLD-1, 48 h; read-out: Cytotoxicity IC50 DLD1
Recorded Endpoint: IC50 at 48 h

The examples below pair each entry with its known result.
[
  {
    "Compound": "C=C1C2CCC(C2)C1(C)C (stereo not drawn) [Camphene]",
    "IC50 at 48 h": "75 µg/mL"
  },
  {
    "Compound": "CC1=CCC(O)(C(C)C)CC1 (stereo not drawn) [Terpinen-4-ol]",
    "IC50 at 48 h": "> 200 µg/mL"
  },
  {
    "Compound": "CC1=CCC2CC1C2(C)C (stereo not drawn) [α-Pinene]",
    "IC50 at 48 h": "58 µg/mL"
  },
  {
    "Compound": "CC12CCC(CC1=O)C2(C)C (stereo not drawn) [Camphor]",
    "IC50 at 48 h": "> 200 µg/mL"
  }
]

# input Return reported IC50 at 48 h. Input compound: CC12CCC(CC1)C(C)(C)O2 [1,8-Cineole]
# output > 200 µg/mL

# input Return reported IC50 at 48 h. Input compound: CC(=O)OC1CC2CCC1(C)C2(C)C (stereo not drawn) [Bornyl acetate]
# output > 200 µg/mL

# input Return reported IC50 at 48 h. Input compound: CC1(C)C2CCC1(C)C(O)C2 (stereo not drawn) [Borneol]
# output > 200 µg/mL

# input Return reported IC50 at 48 h. Input compound: Cc1ccc(C(C)C)cc1 [p-Cymene]
# output > 200 µg/mL

# input Return reported IC50 at 48 h. Input compound: C=C1CC/C=C(\C)CC[C@@H]2[C@@H]1CC2(C)C [β-Caryophyllene]
# output 97 µg/mL

----------
Experiment: Cytotoxic assay, resazurin reduction test, 48 h
Format: cell-based, human
Settings: human, A-549 lung carcinoma cells; A-549, cytotoxic positive control; read-out: Cytotoxicity IC50 A-549
Recorded Endpoint: IC50 at 48 h (nM)
Respond numerically; units are nM and should not be typed.

# input Return reported IC50 at 48 h. Input compound: COc1cc([C@@H]2c3cc4c(cc3[C@@H](O[C@@H]3O[C@@H]5CO[C@@H](C)O[C@H]5[C@H](O)[C@H]3O)[C@H]3COC(=O)[C@H]23)OCO4)cc(OC)c1O [Etoposide, reference compound]
# output 2300

----------
Below, each entry is listed with its recorded IC50 at 48 h.
Experiment: Cytotoxic assay, resazurin reduction test, 48 h
Type: cell-based, human
Conditions: human; WS1, 48 h; read-out: Cytotoxicity IC50 WS1
Respond numerically; units are µg/mL and should not be typed.

The examples below pair each entry with its known result.
[
  {
    "Compound": "C=C1CCC2CC1C2(C)C (stereo not shown)",
    "IC50 at 48 h (µg/mL)": 29
  },
  {
    "Compound": "CC1=CCC(C(C)C)=CC1",
    "IC50 at 48 h (µg/mL)": 82
  }
]

We next turn to a different compound, shown below.
# input Return reported IC50 at 48 h. Input compound: CC1=CC=C(C(C)C)CC1
# output 53

----------
Assay: Cytotoxic assay, resazurin reduction test, 48 h
Type: cell-based, human
Details: human; DLD-1, 48 h; read-out: Cytotoxicity IC50 DLD1
Recorded Endpoint: IC50 at 48 h (µg/mL)
Respond numerically; units are µg/mL and should not be typed.

# input Return reported IC50 at 48 h. Input compound: CC1=CC=C(C(C)C)CC1 [α-Terpinene]
# output 73

# input Return reported IC50 at 48 h. Input compound: C=C1CCC2CC1C2(C)C (stereo not drawn) [β-Pinene]
# output 49.4

----------
Assay: Cytotoxic assay, resazurin reduction test, 48 h
Assay type: cell-based, human
Conditions: human, A-549 lung carcinoma cells; A-549, 48 h; read-out: Cytotoxicity IC50 A549
Recorded Endpoint: IC50 at 48 h

The examples below pair each entry with its known result.
[
  {
    "Molecule": "CC1(C)C2CCC1(C)C(O)C2 (stereo not drawn)",
    "Recorded Endpoint": "IC50 at 48 h",
    "Observed": "> 200 µg/mL"
  },
  {
    "Molecule": "CC1=CCC2CC1C2(C)C (stereo not drawn)",
    "Recorded Endpoint": "IC50 at 48 h",
    "Observed": "35 µg/mL"
  },
  {
    "Molecule": "C=C1CC/C=C(\\C)CC[C@@H]2[C@@H]1CC2(C)C",
    "Recorded Endpoint": "IC50 at 48 h",
    "Observed": "55 µg/mL"
  },
  {
    "Molecule": "CC(=O)OC1CC2CCC1(C)C2(C)C (stereo not drawn) [Bornyl acetate]",
    "Recorded Endpoint": "IC50 at 48 h",
    "Observed": "> 200 µg/mL"
  },
  {
    "Molecule": "CC12CCC(CC1=O)C2(C)C (stereo not drawn)",
    "Recorded Endpoint": "IC50 at 48 h",
    "Observed": "> 200 µg/mL"
  },
  {
    "Molecule": "CC12CCC(CC1)C(C)(C)O2",
    "Recorded Endpoint": "IC50 at 48 h",
    "Observed": "> 200 µg/mL"
  }
]

# input Return reported IC50 at 48 h. Input molecule: Cc1ccc(C(C)C)cc1
# output > 200 µg/mL

# input Return reported IC50 at 48 h. Input molecule: C=C1C2CCC(C2)C1(C)C (stereo not drawn)
# output 72 µg/mL

# input Return reported IC50 at 48 h. Input molecule: CC1=CCC(O)(C(C)C)CC1 (stereo not drawn)
# output > 200 µg/mL

----------
Below, each entry is listed with its recorded IC50 at 48 h.
Experiment: Cytotoxic assay, resazurin reduction test, 48 h
Type: cell-based, human
Details: human, WS1 skin fibroblasts; WS1, 48 h; read-out: Cytotoxicity IC50 WS1

The examples below pair each entry with its known result.
[
  {
    "Compound": "Cc1ccc(C(C)C)cc1 [p-Cymene]",
    "Recorded Endpoint": "IC50 at 48 h",
    "Observed": "> 200 µg/mL"
  },
  {
    "Compound": "CC(=O)OC1CC2CCC1(C)C2(C)C (stereo not drawn) [Bornyl acetate]",
    "Recorded Endpoint": "IC50 at 48 h",
    "Observed": "> 200 µg/mL"
  },
  {
    "Compound": "C=C1CC/C=C(\\C)CC[C@@H]2[C@@H]1CC2(C)C [β-Caryophyllene]",
    "Recorded Endpoint": "IC50 at 48 h",
    "Observed": "59 µg/mL"
  },
  {
    "Compound": "CC12CCC(CC1)C(C)(C)O2 [1,8-Cineole]",
    "Recorded Endpoint": "IC50 at 48 h",
    "Observed": "> 200 µg/mL"
  }
]

We next turn to a different compound, shown below.
# input Return reported IC50 at 48 h. Input compound: CC1=CCC2CC1C2(C)C (stereo not drawn) [α-Pinene]
# output 57 µg/mL

----------
Assay: Cytotoxic assay, resazurin reduction test, 48 h
Format: cell-based, human
Details: human, DLD-1 colon adenocarcinoma cells; DLD-1, cytotoxic positive control; read-out: Cytotoxicity IC50 DLD-1
Recorded Endpoint: IC50 at 48 h (nM)
Respond numerically; units are nM and should not be typed.

# input Return reported IC50 at 48 h. Input compound: COc1cc([C@@H]2c3cc4c(cc3[C@@H](O[C@@H]3O[C@@H]5CO[C@@H](C)O[C@H]5[C@H](O)[C@H]3O)[C@H]3COC(=O)[C@H]23)OCO4)cc(OC)c1O [Etoposide, reference compound]
# output 2800

----------
Test: Cytotoxic assay, resazurin reduction test, 48 h
Assay type: cell-based, human
Details: human; A-549, 48 h; read-out: Cytotoxicity IC50 A549
Below, each entry is listed with its recorded IC50 at 48 h.
Respond numerically; units are µg/mL and should not be typed.

# input Return reported IC50 at 48 h. Input compound: CC1=CC=C(C(C)C)CC1
# output 63

# input Return reported IC50 at 48 h. Input compound: C=C1CCC2CC1C2(C)C (stereo not shown)
# output 43

# input Return reported IC50 at 48 h. Input compound: CC1=CCC(C(C)C)=CC1
# output 112

----------
Assay: Cytotoxic assay, resazurin reduction test, 48 h
Type: cell-based, human
Conditions: human, WS1 skin fibroblasts; WS1, cytotoxic positive control; read-out: Cytotoxicity IC50 WS1
Recorded Endpoint: IC50 at 48 h (µM)
Respond numerically; units are µM and should not be typed.

# input Return reported IC50 at 48 h. Input molecule: COc1cc([C@@H]2c3cc4c(cc3[C@@H](O[C@@H]3O[C@@H]5CO[C@@H](C)O[C@H]5[C@H](O)[C@H]3O)[C@H]3COC(=O)[C@H]23)OCO4)cc(OC)c1O [Etoposide, reference compound]
# output 19
